Data origin, for the record: patent US20240182556A1

# Assayed system: T1, exon 6 peptide (ASSLRNDSSSSNRKAKNPPGDS), coated on ELISA plate (not fully specified)
# T1 construct: No biotin is mentioned for the ELISA coat; also called a peptide of SCF248
# T1 peptide: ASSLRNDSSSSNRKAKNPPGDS
# Experiment: direct ELISA on coated peptide, IgG4, read at 450 nm
Outcome measure: absorbance at 1 ng/mL antibody (absorbance)
Express it in absorbance; write the number only.

Consider the following illustrative entries.
>  <Binder>
F54P mutant expressed as full length IgG4 antibody (antibody, V domains shown, Full length IgG4) VH: QVQLVQSGAELKKPGSSVKISCKSSGYAFSSQWMNWVKQRPGQGLEWIGQIYPEDGDTHMNGKFKTKATLTADKSTSTAYMELSSLTSEDSAVYFCSSSNWVGSYWGQGTLVTVSS VL: DVVMTQSPLSLPVTLGQPASISCKSSQSLLEEDGNTYLNWLQQRPGQSPRRLIYLVDRLDSGVPDRFSGSGSGTDFTLKISRVEAEDVGVYYCWQGTDLPQTFGGGTKVEIK

>  <Experimental value>
0.446

$$$$
>  <Binder>
B124P mutant expressed as full length IgG4 antibody (antibody, V domains shown, Full length IgG4) VH: QVQLVQSGAELKKPGSSVKISCKSSGYAFSSNWMNWVKQRPGQGLEWIGQIYPEDGDTHYNDKFKGKATLTADKSTSTAYMELSSLTSEDSAVYFCSSSNWVGSYWGQGTLVTVSS VL: DVVMTQSPLSLPVTLGQPASISCKSSQSLLEQDGNTYLNWLQQRPGQSPRRLIYLVDRLDSGVPDRFSGSGSGTDFTLKISRVEAEDVGVYYCWQGTDLPQTFGGGTKVEIK

>  <Experimental value>
0.629

$$$$

What measured absorbance at 1 ng/mL antibody goes with H83P mutant expressed as full length IgG4 antibody (antibody, V domains shown, Full length IgG4) VH: QVQLVQSGAELKKPGSSVKISCKSSGYAFSSQWMNWVKQRPGQGLEWIGQIYPGDGDIHYNDKFKGKATLTADKSTSTAYMELSSLTSEDSAVYFCSSSNWVGSYWGQGTLVTVSS VL: DVVMTQSPLSLPVTLGQPASISCKSSQSLLESDGNTYLNWLQQRPGQSPRRLIYLVDRLDSGVPDRFSGSGSGTDFTLKISRVEAEDVGVYYCWQGTDLPQTFGGGTKVEIK ?
0.597

What measured absorbance at 1 ng/mL antibody goes with H74P mutant expressed as full length IgG4 antibody (antibody, V domains shown, Full length IgG4) VH: QVQLVQSGAELKKPGSSVKISCKSSGYAFSSQWMNWVKQRPGQGLEWIGQIYPEDGDTHYNGKFKGKATLTADKSTSTAYMELSSLTSEDSAVYFCSSSNWVGSYWGQGTLVTVSS VL: DVVMTQSPLSLPVTLGQPASISCKSSQSLLEEDGNTYLNWLQQRPGQSPRRLIYLVDRLDLGVPDRFSGSGSGTDFTLKISRVEAEDVGVYYCWQGSHLPQTFGGGTKVEIK ?
0.58
